Here's what we have: pIC50 numbers for LSD1 (Homo sapiens (Human)).
pIC50: −log10 of the molar value. Structures can show the parent of a compound that is named as a salt.
MEASURED PARAMETER: pIC50

Recorded pIC50, per entry:
Cc1c(O)cc(-c2cnc(N3CCC(NCc4ccc(/C=C/C(=O)NO)cc4)CC3)c(C#N)c2-c2ccc(C#N)c(F)c2)cc1F [Example 161, formate]	9.24
COc1ccc(-c2cnc(N3CCC(NCc4ccc(/C=C/C(=O)NO)s4)CC3)c(C#N)c2-c2ccc(C#N)c(F)c2)cc1O [Example 105, formate]	8.91
CC(C)(O)COc1ccc(-c2cnc(N3CCC(NCc4ccc(OCC(=O)NO)cc4)CC3)c(C#N)c2-c2ccc(C#N)c(F)c2)cc1O [Example 192, formate]	9.35
N#Cc1ccc(-c2c(-c3ccc(Cl)c(O)c3)cnc(N3CCC(NCc4cnc(/C=C/C(=O)NO)nc4)CC3)c2C#N)cc1F [Example 159, hydrochloride]	8.74
COc1ccc(-c2cnc(N3CCC(NCc4ncc(/C=C/C(=O)NO)cc4F)CC3)c(C#N)c2-c2ccc(C#N)c(F)c2)cc1O [Example 230, formate]	8.84

[P] COc1ccc(-c2c(-c3ccc(C#N)c(F)c3)nc(N3CCC(NCc4ccc(/C=C/C(=O)NO)cc4)CC3)n(C)c2=O)cc1O [Example 67, formate]
[Q] COc1ccc(-c2cnc(N3CCC(NCc4cnc(/C=C/C(=O)NO)cn4)CC3)c(C#N)c2-c2ccc(C#N)c(F)c2)cc1O [Example 133, trifluoroacetate]
[R] COc1ccc(-c2cnc(N3CCC(NCc4ccc(/C=C(\C)C(=O)NO)nc4)CC3)c(C#N)c2-c2ccc(C#N)c(F)c2)cc1O [Example 220, formate]
[S] COc1ccc(-c2cnc(N3CCC(NCc4ccc(/C=C/C(=O)NO)c5[nH]ncc45)CC3)c(C#N)c2-c2ccc(C#N)c(F)c2)cc1O [Example 180, formate]
[T] COc1ccc(-c2cnc(N3CCC(NCc4ccc(/C=C(\F)C(=O)NO)cc4)CC3)c(F)c2-c2ccc(C#N)nc2)cc1O
Task: Given 5 compounds, produce a descending ranking by pIC50. Submit the labels in the order that the ranking request calls for.
Result: S, R, P, Q, T

[1] COc1cc(OC)c(-c2cnc(N3CCC(NCc4ccc(/C=C/C(=O)NO)cc4)CC3)c(C#N)c2-c2ccc(C#N)c(F)c2)cc1O [Example 165, hydrochloride]
[2] N#Cc1ccc(-c2c(-c3ccc(O)c(O)c3)cnc(N3CCC(NCc4ccc(/C=C/C(=O)NO)cc4)CC3)c2C#N)cc1F [Example 137, hydrochloride]
[3] COc1ccc(-c2cnc(N3CCC(NCc4ccc(/C=C/C(=O)NO)cc4F)CC3)c(C#N)c2-c2ccc(C#N)c(F)c2)cc1O [Example 154, hydrochloride]
Task: Please rank these compounds by pIC50 in descending order. When ranking, write the labels in the order the request describes.
Result: 3, 1, 2

---

Target: UniProt Q9BY41
Sequence (Q9BY41 whole entry): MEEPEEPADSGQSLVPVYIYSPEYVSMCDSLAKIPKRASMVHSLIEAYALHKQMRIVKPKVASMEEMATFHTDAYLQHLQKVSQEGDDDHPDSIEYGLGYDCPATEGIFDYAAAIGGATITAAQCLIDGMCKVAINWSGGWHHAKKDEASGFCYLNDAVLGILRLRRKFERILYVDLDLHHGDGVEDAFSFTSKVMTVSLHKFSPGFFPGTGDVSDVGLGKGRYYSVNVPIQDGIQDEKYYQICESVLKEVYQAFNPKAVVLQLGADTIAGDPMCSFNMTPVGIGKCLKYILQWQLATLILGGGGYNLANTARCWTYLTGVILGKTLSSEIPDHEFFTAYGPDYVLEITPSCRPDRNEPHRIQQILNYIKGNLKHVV
Assay: In vitro enzyme inhibition assay - HDAC (HDAC-Glo I/II), HDAC8
Type: biochemical
Settings: read-out: HDAC IC50 (nM) HDAC 8
Text: 2. In Vitro Enzyme Inhibition Assay—HDAC The effect of the compound on the enzymatic activity of pan-HDAC and two isoforms (HDAC1 and HDAC8) was examined using the HDAC-Glo I/II Assay and Screening System assay to assess the level of inhibition of HDAC protease activity and selectivity in each isoform. […] The 384-well plate was then read on a multifunctional microplate reader, with the Luminescence channel selected to record Luminescence values (RLU). […]
Structures can show the parent of a compound that is named as a salt.
MEASURED PARAMETER: IC50 (nM)

N#Cc1ccc(-c2nc(N3CCC(N)CC3)n3ccnc3c2-c2ccc(OCCCCCCC(=O)NO)c(O)c2)cc1F [Example 21, hydrochloride]	275
COc1cc(OC)c(-c2cnc(N3CCC(NCc4ccc(/C=C/C(=O)NO)cc4)CC3)c(C#N)c2-c2ccc(C#N)c(F)c2)cc1O [Example 165, hydrochloride]	145
COc1ccc(-c2cnc(N3CCC(NCc4ccc(/C=C/C(=O)NO)c(F)c4)CC3)c(C#N)c2-c2ccc(C#N)c(F)c2)cc1O [Example 200, formate]	127
COc1ccc(-c2cnc(N3CCC(NCCOc4ccc(C(=O)NO)cc4)CC3)c(C#N)c2-c2ccc(C#N)c(F)c2)cc1O [Example 164, formate]	332

[a] COc1ccc(-c2cnc(N3CCC(NCc4cccc(/C=C/C(=O)NO)c4)CC3)c(C#N)c2-c2ccc(C#N)c(F)c2)cc1O [Example 114]
[b] CC(C)(O)COc1ccc(-c2cnc(N3CCC(NCc4ccc(/C=C(\F)C(=O)NO)cc4)CC3)c(C#N)c2-c2ccc(C#N)c(F)c2)cc1O [Example 198, formate]
Task: Name the one with the greater IC50 value, either a or b as given. Respond with the label that goes with your answer.
Result: a
(a: 571 nM, b: 67.2 nM)

[a] COc1cc(-c2cnc(N3CCC(N(C)Cc4ccc(/C=C/C(=O)NO)cc4)CC3)c(C#N)c2-c2ccc(C#N)c(F)c2)ccc1O [Example 99, formate]
[b] COc1ccc(-c2cnc(N3CCC(NCc4cnc(/C=C/C(=O)NO)nc4)CC3)c(C#N)c2-c2ccc(C#N)c(F)c2)cc1O [Example 106, formate]
Task: Looking at recorded values for IC50, does a or b come in lower? Give the chosen item's label as your response.
Result: b
(b: 13.1 nM, a: 120 nM)

[A] COc1ccc(-c2cnc(N3CCC(NCc4ccc(/C=C/C(=O)NO)cc4)CC3)c(C#N)c2-c2ccc([N+](=O)[O-])cc2)cc1O [Example 150, formate]
[B] Cc1c(N2CCC(NCc3ccc(/C=C/C(=O)NO)cc3)CC2)ncc(-c2ccc(OCC(C)(C)O)c(O)c2)c1-c1ccc(C#N)c(F)c1 [Example 207, hydrochloride]
Task: Which one would you say has the larger IC50 value: A , or B ? I would appreciate it if you answered with the label of your choice.
Result: B

[P] COc1ccc(-c2cnc(N3CCC(NCc4ccc(C#CC(=O)NO)cc4)CC3)c(C#N)c2-c2ccc(C#N)c(F)c2)cc1O [Example 109]
[Q] N#Cc1ccc(-c2c(-c3ccc(OC(F)F)c(O)c3)cnc(N3CCC(NCc4ccc(/C=C/C(=O)NO)cc4)CC3)c2C#N)cc1F [Example 124]
Task: Given P and given Q , which shows the smaller recorded IC50? Use the label to indicate which entry you chose.
Result: Q
(Q: 179 nM, P: 391 nM)

[1] COc1ccc(-c2cnc(N3CCC(NCc4ccc(OCC(=O)NO)cc4)CC3)c(C#N)c2-c2ccc(C#N)c(F)c2)cc1O [Example 181]
[2] N#Cc1ccc(-c2c(-c3ccc4cn[nH]c4c3)cnc(N3CCC(NCc4cnc(/C=C/C(=O)NO)nc4)CC3)c2C#N)cc1F [Example 184]
[3] CNc1ccc(-c2cnc(N3CCC(NCc4cnc(/C=C/C(=O)NO)nc4)CC3)c(C#N)c2-c2ccc(C#N)c(F)c2)cc1O [Example 196, hydrochloride]
[4] COc1cc(-c2cnc(N3CCC(NCc4cnc(/C=C/C(=O)NO)nc4)CC3)c(C#N)c2-c2ccc(C#N)c(F)c2)ccc1O [Example 96]
[5] COc1ccc(-c2cnc(N3CCC(NCc4cnc(/C=C/C(=O)NO)nc4)CC3)c(C)c2-c2ccc(C#N)c(F)c2)cc1O [Example 202, formate]
Task: # sort list by recorded IC50, greatest to least Use the labels to give the ranking in the order requested.
Result: 1, 2, 3, 4, 5

[A] N#Cc1ccc(-c2c(-c3ccc(C(F)(F)F)c(O)c3)cnc(N3CCC(NCc4cnc(/C=C/C(=O)NO)nc4)CC3)c2C#N)cc1F [Example 186, formate]
[B] COc1cc(-c2cnc(N3CCC(NCc4ccc(/C=C/C(=O)NO)cn4)CC3)c(C#N)c2-c2ccc(C#N)c(F)c2)ccc1O [Example 95]
Task: Exercise: compare A and B ; which one has the greater IC50? Let me know the label of the one you choose.
Result: B
(B: 87.2 nM, A: 50.9 nM)

[1] CC(C)(O)COc1ccc(-c2cnc(N3CCC(NCc4cnc(/C=C/C(=O)NO)nc4)CC3)c(C#N)c2-c2ccc(C#N)c(F)c2)cc1O [Example 187, formate]
[2] N#Cc1ccc(-c2cnc(N3CCC(NCc4ccc(/C=C/C(=O)NO)cc4)CC3)c(C#N)c2-c2ccc(C#N)c(F)c2)cc1O [Example 113, formate]
Task: When the recorded IC50 values are compared, which is smaller: that of 1 or that of 2 ? Let me know the label of the one you choose.
Result: 1

[P] COc1ccc(-c2cnc(N3CCC(NCc4ccc(/C=C/C(=O)NO)cc4)CC3)c(CC#N)c2-c2ccc(C#N)c(F)c2)cc1O [Example 233, formate]
[Q] CC(C)(O)COc1ccc(-c2cnc(N3CCC(NCc4ccc(/C=C/C(=O)NO)c(C#N)c4)CC3)c(C#N)c2-c2ccc(C#N)c(F)c2)cc1O [Example 189]
[R] COc1ccc(-c2cnc(N3CCC(NCc4ccc(CCC(=O)NO)cc4)CC3)c(C)c2-c2ccc(C#N)c(F)c2)cc1O [Example 209, hydrochloride]
Task: Hi! Can you put these in order of IC50, lowest number first? Show the ranking through the labels, in the order asked for.
Result: R, P, Q
